Test system: PCSK9 gene
Assay: PCSK9 gRNA/SpCas9 editing in primary cynomolgus hepatocytes (Tables 2, 22)
Format: cell-based, cynomolgus monkey
Details: 100 ng/RNA/mL; SpCas9 mRNA MS002 1:1 by weight
In the oligonucleotide strings, read from the 5' end, every base follows the letter of its sugar. An asterisk marks phosphorothioate; unmarked linkages are phosphodiester. Other units and linkages are bracketed, terminal groups are in braces. A string of capitals states the bases alone. m = 2'-O-methyl; r = 2'-OH (RNA)
measured.quantity: Cyno Primary Hepatocyte Editing % 100 (%)
Numbers only, in %.

{"molecule": "GA181: PCSK9 gRNA; protospacer GGCTTCCTGGTGAAGATGAG (SEQ ID NO: 175) (nucleic acid) guide: mG*mG*mC*rUrUrCrCrUrGrGrUrGrArArGrArUrGrArGrGrUrUrUrUrArGrArGrCrUrArGrArArArUrArGrCrArArGrUrUrArArArArUrArArGrGrCrUrArGrUrCrCrGrUrUrArUrCrArArCrUrUrGrArArArArArGrUrGrGrCrArCrCrGrArGrUrCrGrGrUrGrCrU*mU*mU*mU", "Cyno Primary Hepatocyte Editing % 100 / %": 3.66}
{"molecule": "GA233: PCSK9 gRNA; protospacer GCGGCTGTACCCACCCGCCA (SEQ ID NO: 227) (nucleic acid, sugars from the 5' end m3 r94 m3, linkages s3 o93 s3 (s phosphorothioate, o phosphodiester), T or U not given here) guide: GCGGCUGUACCCACCCGCCAGUUUUAGAGCUAGAAAUAGCAAGUUAAAAUAAGGCUAGUCCGUUAUCAACUUGAAAAAGUGGCACCGAGUCGGUGCUUUU", "Cyno Primary Hepatocyte Editing % 100 / %": 2.38}
{"molecule": "GA171: PCSK9 gRNA; protospacer TCTTGGTGAGGTATCCCCGG (SEQ ID NO: 165) (nucleic acid, 2'-O-methyl at 1, 2, other sugars, backbone and T or U not given here; further chemistry not fully specified) guide: UCTTGGTGAGGTATCCCCGGGTTTTAGAGCTAGAAATAGCAAGTTAAAATAAGGCTAGTCCGTTATCAACTTGAAAAAGTGGCACCGAGTCGGTGCTTTT", "Cyno Primary Hepatocyte Editing % 100 / %": 1.29}
{"molecule": "GA205: PCSK9 gRNA; protospacer CCCTGCCCTCGATTTCCCGG (SEQ ID NO: 199) (nucleic acid, sugars from the 5' end m3 r94 m3, linkages s3 o93 s3 (s phosphorothioate, o phosphodiester), T or U not given here) guide: CCCUGCCCUCGAUUUCCCGGGUUUUAGAGCUAGAAAUAGCAAGUUAAAAUAAGGCUAGUCCGUUAUCAACUUGAAAAAGUGGCACCGAGUCGGUGCUUUU", "Cyno Primary Hepatocyte Editing % 100 / %": 3.01}
{"molecule": "GA201: PCSK9 gRNA; protospacer CAGCATACAGAGTGACCACC (SEQ ID NO: 195) (nucleic acid, sugars from the 5' end m3 r94 m3, linkages s3 o93 s3 (s phosphorothioate, o phosphodiester), T or U not given here) guide: CAGCAUACAGAGUGACCACCGUUUUAGAGCUAGAAAUAGCAAGUUAAAAUAAGGCUAGUCCGUUAUCAACUUGAAAAAGUGGCACCGAGUCGGUGCUUUU", "Cyno Primary Hepatocyte Editing % 100 / %": 4.33}

Take each entry in turn and give its Cyno Primary Hepatocyte Editing % 100.
1. GA238: PCSK9 gRNA; protospacer GCACGACCCCAGCCCTCGCC (SEQ ID NO: 231) (nucleic acid, sugars from the 5' end m3 r94 m3, linkages s3 o93 s3 (s phosphorothioate, o phosphodiester), T or U not given here) guide: GCACGACCCCAGCCCUCGCCGUUUUAGAGCUAGAAAUAGCAAGUUAAAAUAAGGCUAGUCCGUUAUCAACUUGAAAAAGUGGCACCGAGUCGGUGCUUUU
2. GA239: PCSK9 gRNA; protospacer CCGCCTGCCAGCGCCTGGCG (SEQ ID NO: 232) (nucleic acid, sugars from the 5' end m3 r94 m3, linkages s3 o93 s3 (s phosphorothioate, o phosphodiester), T or U not given here) guide: CCGCCUGCCAGCGCCUGGCGGUUUUAGAGCUAGAAAUAGCAAGUUAAAAUAAGGCUAGUCCGUUAUCAACUUGAAAAAGUGGCACCGAGUCGGUGCUUUU
3. GA229: PCSK9 gRNA; protospacer GTCGTGCTGGTCACCGCTGC (SEQ ID NO: 223) (nucleic acid, sugars from the 5' end m3 r94 m3, linkages s3 o93 s3 (s phosphorothioate, o phosphodiester), T or U not given here) guide: GUCGUGCUGGUCACCGCUGCGUUUUAGAGCUAGAAAUAGCAAGUUAAAAUAAGGCUAGUCCGUUAUCAACUUGAAAAAGUGGCACCGAGUCGGUGCUUUU
4. GA244: PCSK9 gRNA; protospacer TTCCGAATAAACTCCAGGCC (SEQ ID NO: 237) (nucleic acid, sugars from the 5' end m3 r94 m3, linkages s3 o93 s3 (s phosphorothioate, o phosphodiester), T or U not given here) guide: UUCCGAAUAAACUCCAGGCCGUUUUAGAGCUAGAAAUAGCAAGUUAAAAUAAGGCUAGUCCGUUAUCAACUUGAAAAAGUGGCACCGAGUCGGUGCUUUU
5. GA173: PCSK9 gRNA; protospacer CTTGGTGAGGTATCCCCGGC (SEQ ID NO: 167) (nucleic acid, sugars from the 5' end m3 r94 m3, linkages s3 o93 s3 (s phosphorothioate, o phosphodiester), T or U not given here) guide: CUUGGUGAGGUAUCCCCGGCGUUUUAGAGCUAGAAAUAGCAAGUUAAAAUAAGGCUAGUCCGUUAUCAACUUGAAAAAGUGGCACCGAGUCGGUGCUUUU
6. GA218: PCSK9 gRNA; protospacer CGCTGACCACCCCTGCCAGG (SEQ ID NO: 212) (nucleic acid, sugars from the 5' end m3 r94 m3, linkages s3 o93 s3 (s phosphorothioate, o phosphodiester), T or U not given here) guide: CGCUGACCACCCCUGCCAGGGUUUUAGAGCUAGAAAUAGCAAGUUAAAAUAAGGCUAGUCCGUUAUCAACUUGAAAAAGUGGCACCGAGUCGGUGCUUUU

Response:
0.94
0.02
0.75
1.63
2.06
5.42
